Numbers sourced from ChEMBL document CHEMBL3734675.

Tested on: Staphylococcus epidermidis
Experiment: Antibacterial activity against methicillin-resistant Staphylococcus epidermidis 14-37 after 18 to 24 hrs by two-fold serial dilution method
Type: functional
property: MIC (µg/mL)
// units = µg/mL; emit number, no label

CC1(CNC2CC2)CN(c2nc3c(cc2F)c(=O)c(C(=O)O)cn3-c2nc(N)c(F)cc2F)C/C1=N/OCc1ccccc1 (centres undefined)    64

Could you tell me which MIC is on file for CCO/N=C1/CN(c2nc3c(cc2F)c(=O)c(C(=O)O)cn3-c2nc(N)c(F)cc2F)CC1CNC1CC1 (centres undefined) ? 64

Could you tell me which MIC is on file for O=C(O)c1cn([C@@H]2C[C@@H]2F)c2nc(N3C/C(=N/OCc4ccccc4)C(CNC4CC4)C3)c(F)cc2c1=O (some centres undefined) ? 16

Could you tell me which MIC is on file for CO/N=C1/CN(c2nc3c(cc2F)c(=O)c(C(=O)O)cn3-c2nc(N)c(F)cc2F)CC1(C)CNC1CC1 (centres undefined) ? 64

###

Each item that follows carries a reported MIC.
Tested on: Klebsiella pneumoniae
Assay: Antibacterial activity against extended-spectrum beta-lactamase producing Klebsiella pneumoniae 14-17 after 18 to 24 hrs by two-fold serial dilution method
Format: functional

Known MIC results, listed for orientation:
CCO/N=C1/CN(c2c(F)cc3c(=O)c(C(=O)O)cn([C@@H]4C[C@@H]4F)c3c2OC)CC1CNC1CC1 (stereo partly drawn)    32 µg/mL
CC1(CNC2CC2)CN(c2nc3c(cc2F)c(=O)c(C(=O)O)cn3C2CC2)C/C1=N/OCc1ccccc1 (stereo not drawn)    128 µg/mL
CC1(CNC2CC2)CN(c2nc3c(cc2F)c(=O)c(C(=O)O)cn3-c2nc(N)c(F)cc2F)C/C1=N/OCc1ccccc1 (stereo not drawn)    > 128 µg/mL
O=C(O)c1cn(C2CC2)c2nc(N3C/C(=N/OCc4ccccc4)C(CNC4CC4)C3)c(F)cc2c1=O (stereo not drawn)    128 µg/mL
CCO/N=C1/CN(c2nc3c(cc2F)c(=O)c(C(=O)O)cn3C2CC2)CC1(C)CNC1CC1 (stereo not drawn)    64 µg/mL

Could you tell me which MIC is on file for C[C@H]1COc2c(N3C/C(=N/OCc4ccccc4)C(CNC4CC4)C3)c(F)cc3c(=O)c(C(=O)O)cn1c23 (stereo partly drawn) ? 32 µg/mL

Could you tell me which MIC is on file for CCO/N=C1/CN(c2c(F)cc3c(=O)c(C(=O)O)cn4c3c2OC[C@@H]4C)CC1(C)CNC1CC1 (stereo partly drawn) ? 32 µg/mL

Could you tell me which MIC is on file for CO/N=C1/CN(c2nc3c(cc2F)c(=O)c(C(=O)O)cn3-c2nc(N)c(F)cc2F)CC1(C)CNC1CC1 (stereo not drawn) ? > 128 µg/mL

###

Tested on: Klebsiella pneumoniae
Assay: Antibacterial activity against Klebsiella pneumoniae 14-3 after 18 to 24 hrs by two-fold serial dilution method
Format: functional
property: MIC

Known MIC results, listed for orientation:
O=C(O)c1cn(C2CC2)c2nc(N3C/C(=N/OCc4ccccc4)C(CNC4CC4)C3)c(F)cc2c1=O (stereo not given)    128 µg/mL
CO/N=C1/CN(c2nc3c(cc2F)c(=O)c(C(=O)O)cn3C2CC2)CC1(C)CNC1CC1 (stereo not given)    > 128 µg/mL
CCO/N=C1/CN(c2nc3c(cc2F)c(=O)c(C(=O)O)cn3C2CC2)CC1(C)CNC1CC1 (stereo not given)    128 µg/mL
CO/N=C1/CN(c2nc3c(cc2F)c(=O)c(C(=O)O)cn3C2CC2)CC1CNC1CC1 (stereo not given)    128 µg/mL

Param readout= MIC; system= Klebsiella pneumoniae; entry= CO/N=C1/CN(c2nc3c(cc2F)c(=O)c(C(=O)O)cn3[C@@H]2C[C@@H]2F)CC1CNC1CC1 (stereo not given in full) ; returns value. > 128 µg/mL
